Kindly state pKi for each of the entries shown.
target: VchCAβ (Vibrio cholerae); construct: gene VC_0586; assay: stopped-flow CO2 hydrase assay; format: biochemical; settings: read-out: VchCAβ
Sequence (Q9KUD6 1-222): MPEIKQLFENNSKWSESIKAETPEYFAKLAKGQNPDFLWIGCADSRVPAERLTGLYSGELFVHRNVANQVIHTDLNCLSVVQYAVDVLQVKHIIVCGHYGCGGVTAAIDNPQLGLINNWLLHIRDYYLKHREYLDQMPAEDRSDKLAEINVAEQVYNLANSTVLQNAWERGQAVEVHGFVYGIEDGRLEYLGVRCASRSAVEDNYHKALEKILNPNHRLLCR
Give bare numbers, as −log10 of the molar value.

I have 7 compounds here; please give me pKi for each one.
1. O=C(NO)Nc1ccccc1 [compound 1, 1: H]
2. O=C(NO)Nc1ccc(Cl)cc1 [compound 4, 4: 4-Cl]
3. O=C(NO)Nc1ccc([N+](=O)[O-])cc1 [compound 7, 7: 4-O2N]
4. Cc1ccc(NC(=O)NO)cc1 [compound 2, 2: 4-CH3]
5. O=C(NO)Nc1cccc(Cl)c1 [compound 6, 6: 3-Cl]
6. O=C(NO)Nc1ccccc1Cl [compound 5, 5: 2-Cl]
7. O=C(NO)Nc1ccccc1[N+](=O)[O-] [compound 8, 8: 2-O2N]

**Result**
1: 5.74; 2: 6.27; 3: 7.27; 4: 6.32; 5: 7.22; 6: 7.19; 7: 7.28

I have 2 compounds here; please give me pKi for each one.
1. Cc1ccc(C)c(NC(=O)NO)c1 [compound 9, 9: 2,5-Me2]
2. Cc1ccccc1NC(=O)NO [compound 3, 3: 2-CH3]

**Result**
7.23
6.42

----------
Kindly state pKi for each of the entries shown.
Biological target: PgiCAβ (Porphyromonas gingivalis)
Construct: gene PGN_1533
Sequence (B2RL07 19-242): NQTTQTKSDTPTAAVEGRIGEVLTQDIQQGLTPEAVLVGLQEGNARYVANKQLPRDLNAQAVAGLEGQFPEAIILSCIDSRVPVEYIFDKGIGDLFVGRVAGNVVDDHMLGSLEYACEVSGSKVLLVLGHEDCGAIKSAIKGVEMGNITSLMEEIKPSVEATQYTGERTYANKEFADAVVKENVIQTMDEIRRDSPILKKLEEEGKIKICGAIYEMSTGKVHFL
Assay: stopped-flow CO2 hydrase assay
Assay type: biochemical
Conditions: CO2 hydration, 10 mM Tris pH 8.3, 0.1 M Na2SO4, 25 °C, 15 min preincubation; read-out: PgiCAβ
pKi: −log10 of the molar value.

smiles_data | metric_name | result
O=C(NO)Nc1ccccc1[N+](=O)[O-] | pKi | < 5.00

Consider the record given below.
**Query** Field request: pKi | item: Cc1ccc(C)c(NC(=O)NO)c1
**Result** < 5.00

----------
target: VchCAγ (Vibrio cholerae, UniProt Q9KVT1); construct: gene VC_0058; assay: stopped-flow CO2 hydrase assay; type: biochemical; settings: CO2 hydration, 10 mM Tris pH 8.3, 0.1 M Na2SO4, 25 °C, 15 min preincubation; read-out: VchCAγ
Sequence (Q9KVT1 1-184): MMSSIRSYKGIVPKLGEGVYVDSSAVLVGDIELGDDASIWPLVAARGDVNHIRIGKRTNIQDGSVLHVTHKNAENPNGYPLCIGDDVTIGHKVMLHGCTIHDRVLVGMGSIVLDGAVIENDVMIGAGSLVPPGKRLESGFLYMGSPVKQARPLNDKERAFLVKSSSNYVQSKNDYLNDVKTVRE
pKi: −log10 of the molar value.
Kindly state pKi for each of the entries shown.

smiles_data | pKi
Cc1ccc(NC(=O)NO)cc1 | < 5.00
Cc1ccc(C)c(NC(=O)NO)c1 | 5.26
O=C(NO)Nc1ccccc1[N+](=O)[O-] | 5.25
O=C(NO)Nc1ccc([N+](=O)[O-])cc1 | < 5.00
Cc1ccccc1NC(=O)NO | < 5.00
O=C(NO)Nc1ccccc1 | < 5.00
O=C(NO)Nc1ccc(C(F)(F)F)cc1Cl | 5.27
O=C(NO)Nc1ccccc1Cl | < 5.00
O=C(NO)Nc1cccc(Cl)c1 | < 5.00
O=C(NO)Nc1ccc(Cl)cc1 | < 5.00

Consider the record given below.
**Query** Field request: pKi | item: COc1ccccc1NC(=O)NO
**Result** 5.32
